Values were extracted from patent US20240392024A1.

- Measured Target: T1, TNFR2-His (Sino Biological, 10417-H08H, NP_001057.1 Met1-Asp257, with multi-histidine tag expressed on … (human, UniProt P20333 23-257))
- T1 construct: range 1-257; Bought protein; also called recombinant human TNFR2 protein; TNFR2-His antigen; not shown: C-terminal multi-histidine tag
- T1 sequence (looked up): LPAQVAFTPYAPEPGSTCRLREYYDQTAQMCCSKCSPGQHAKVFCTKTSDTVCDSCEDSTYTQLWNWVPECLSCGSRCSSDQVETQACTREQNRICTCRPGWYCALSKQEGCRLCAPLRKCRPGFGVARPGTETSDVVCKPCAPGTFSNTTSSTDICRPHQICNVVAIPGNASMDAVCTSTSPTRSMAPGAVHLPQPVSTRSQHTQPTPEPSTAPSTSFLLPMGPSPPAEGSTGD
- Method Notes: ELISA, plate coated with TNFR2-His

Binder | EC50 / µg/mL
human-mouse chimeric TNFR2 monoclonal antibody 29A1-hFc (antibody, V domains shown, Mouse V regions of clone 29A1 with human constant regions) VH: QVQLQQSGAEVVRPGASVTLSCKASGYTFSDYEMHWVKQTPVHGLEWIGAIDPETGDTAYNQKFKDKARVTADKSSSTAYMELRSLTSEDSAVYYCTRDIHYYGSSLSYFDYWGQGTTLTVSS VL: DIVMTQSQKFMSTSVGDRVSVTCKASQNVGTNVAWYQQKPGQSPKVMIYSASYRYSGAPDRFTGSGSGTDFTLTVNNVQSEDLAEYFCQQYKTYPYTFGGGTKLEIE | 0.037
